Tested on: CHO
Test: Selectivity ratio of Ki for human CB1 receptor expressed in CHO cell membranes to Ki for human CB2 receptor expressed in CHO cell membranes
Assay type: cell-based
metric_name: Ratio Ki
Note: the reply should be a number with no unit written.

Prompt line: Can you share its Ratio Ki? I mean this compound: CCCCCn1cc(C(=O)NC23CC4CC(CC(C4)C2)C3)c(=O)n2nc(-c3ccc(C)cc3)nc12
Response line: 223

Prompt line: What do you have for CCCCCn1cc(C(=O)NC2CCCCCC2)c(=O)n2nc(-c3ccc(C)cc3)nc12 ?
Response line: 289

Prompt line: What do you have for CCCCCn1cc(C(=O)NC23CC4CC(C)(CC(C)(C4)C2)C3)c(=O)n2nc(-c3ccccc3)nc12 ?
Response line: 77

Data credit: ChEMBL document CHEMBL3774386
